Tested on: thyroid hormone receptor (rat, GH3 cells)
Assay: qHTS assay to identify small molecule agonists of the thyroid receptor (TR) signaling pathway (AID 743066)
Settings: GH3.TRE-Luc cells, TR agonist luciferase, 24 h; series mostly up to 83.9 µM
Results filed as inconclusive are left out. Calls of active or inactive are those of the source. The call rests on the fitted dose curve. Starred links: 1 amine or outer side, 2 acyl side, 3 side chain; linkers in the order of their positions; H or OH if unused. Positions of bridges follow the written chain, without caps; N, C: chain ends. Non-standard residues stand in square brackets, D forms with d. Residues, ends and D or L forms follow the SMILES beside them. Chains are numbered I, II in the order given. Actinocin(9to1) = Cc1c2oc3c(C)ccc(C(=O)[*:1])c3nc-2c(C(=O)[*:2])c(N)c1=O; NMeV = CN[C@H](C(=O)O)C(C)C; Sar = CNCC(=O)O
quantity: outcome

# annotated cases, reported outcome shown
[[record]]
compound = "c1ccc2n[nH]nc2c1"
quantity = "outcome"
obsvalue = "inactive"

[[record]]
compound = "Cc1c2oc3c(C)ccc(C(=O)N[C@@H]4C(=O)N[C@H](C(C)C)C(=O)N5CCC[C@H]5C(=O)N(C)CC(=O)N(C)[C@@H](C(C)C)C(=O)O[C@@H]4C)c3nc-2c(C(=O)N[C@@H]2C(=O)N[C@H](C(C)C)C(=O)N3CCC[C@H]3C(=O)N(C)CC(=O)N(C)[C@@H](C(C)C)C(=O)O[C@@H]2C)c(N)c1=O (I: T[dV]P[Sar][NMeV] / II: T[dV]P[Sar][NMeV]; ester I:1-I:C, II:1-II:C; linker I:N-II:N via Actinocin(9to1))"
quantity = "outcome"
obsvalue = "inactive"

[[record]]
compound = "COC(c1ccccc1)(c1ccccc1)[C@H](Oc1nc(C)cc(C)n1)C(=O)O"
quantity = "outcome"
obsvalue = "inactive"

[[record]]
compound = "C[N+]1([O-])CCOCC1"
quantity = "outcome"
obsvalue = "inactive"

[[record]]
compound = "Nc1ccc2cc3ccccc3cc2c1"
quantity = "outcome"
obsvalue = "inactive"

[[record]]
compound = "COc1ccc(CCN(C)CCCC(C#N)(c2ccc(OC)c(OC)c2)C(C)C)cc1OC (stereo not drawn)"
quantity = "outcome"
obsvalue = "inactive"

[[record]]
compound = "CCCCN(CCO)CCCC"
quantity = "outcome"
obsvalue = "inactive"


Consider the record given below.
Notebook: Nc1nc(=S)c2[nH]cnc2[nH]1 , outcome read as inactive

These measurements were taken from PubChem BioAssay (Tox21).
